Field: inhibition. Provide a value for each of the compounds that follow.
# TARGET ENTITY: Aurora kinase C (Homo sapiens);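 also: values are the mean inhibition of Aurora-C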
# Sequence (whole entry): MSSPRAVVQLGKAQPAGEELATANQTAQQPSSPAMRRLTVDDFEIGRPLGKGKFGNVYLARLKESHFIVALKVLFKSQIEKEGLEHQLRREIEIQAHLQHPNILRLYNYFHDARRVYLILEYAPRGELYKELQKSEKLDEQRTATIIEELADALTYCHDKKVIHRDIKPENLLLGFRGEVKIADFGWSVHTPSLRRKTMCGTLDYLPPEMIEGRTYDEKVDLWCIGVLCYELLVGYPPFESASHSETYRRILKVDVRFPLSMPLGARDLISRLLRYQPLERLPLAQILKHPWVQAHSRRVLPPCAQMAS
# EXPERIMENTAL CONDITIONS: at 0.1 µM
Record the result as a number with its unit.

Exercise: Report measured inhibition on Aurora kinase C (Homo sapiens); entry: NS(=O)(=O)c1ccc(Nc2cc(-c3ccc(O)c(F)c3)n[nH]2)cc1
Key: -0.76%

Exercise: Report measured inhibition on Aurora kinase C (Homo sapiens); entry: Cc1ccc(C(=O)NC2CCC2)cc1-c1ccc(C(=O)NCC2CC2)cc1
Key: 0.47%

Exercise: Report measured inhibition on Aurora kinase C (Homo sapiens); entry: Clc1ccc(CNc2nccc(-c3cnn4ncccc34)n2)cc1
Key: 2.6%

Exercise: Report measured inhibition on Aurora kinase C (Homo sapiens); entry: COc1ccc2cc(-c3c(-c4ccncc4)nc(-c4ccc([S+](C)[O-])cc4C)n3C)ccc2c1 (stereo not given)
Key: -0.11%

Exercise: Report measured inhibition on Aurora kinase C (Homo sapiens); entry: C#Cc1cccc(Nc2ncnc3ccc(OCCCCNCCS(C)(=O)=O)cc23)c1
Key: -2.83%

* * *

# TARGET ENTITY: SRSF protein kinase 1 (Homo sapiens);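 also: values are mean percent inhibition of SRPK1 kinase, measured in the GSK PKIS screening panel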
# EXPERIMENTAL CONDITIONS: at 0.1 µM
VALUE TYPE: inhibition (%)
Enter your answer as a number in %; do not include the unit.

Exercise: Hello, please tell me recorded inhibition for this one: C[C@@H](Oc1cc(-n2cnc3ccc(OCC4CCN(C)CC4)cc32)sc1C(N)=O)c1ccccc1Cl
Key: -2.59

Exercise: Hello, please tell me recorded inhibition for this one: COc1cccc(-n2cnc3c(N/N=C/c4ccncc4)ncnc32)c1
Key: 1.41

Exercise: Hello, please tell me recorded inhibition for this one: COc1ccc(C2=C(N3CCc4ccccc43)C(=O)NC2=O)cc1
Key: -1.12

Exercise: Hello, please tell me recorded inhibition for this one: NC(=O)Cc1ccccc1Oc1nccc(-c2c(-c3ccc(F)cc3)ncn2C2CCNCC2)n1
Key: -2.64

Exercise: Hello, please tell me recorded inhibition for this one: CS(=O)(=O)CCNCc1ccc(-c2ccc3ncnc(Nc4ccc(OCc5ccccc5)c(Br)c4)c3c2)o1
Key: -3.23

Exercise: Hello, please tell me recorded inhibition for this one: CCN(CC)Cc1ccc(Nc2nccc(-c3cnn4ncccc34)n2)cc1
Key: -2.98

Exercise: Hello, please tell me recorded inhibition for this one: COc1cc2ncn(-c3cc(OCc4ccccc4C(F)(F)F)c(C(C)=O)s3)c2cc1OC
Key: -0.85

Exercise: Hello, please tell me recorded inhibition for this one: CCC(=O)Nc1ccc(C)c(-c2ccc(C(=O)NCC3CC3)cc2)c1
Key: -3.31

Exercise: Hello, please tell me recorded inhibition for this one: O=C(Nc1ccc(Oc2ccc3[nH]c(NC(=O)c4ccccc4)nc3c2)cc1)Nc1cc(C(F)(F)F)ccc1F
Key: -0.76

Exercise: Hello, please tell me recorded inhibition for this one: Cc1nnc(-c2ccc(C)c(-c3ccc(C(=O)NCc4ccc(Cl)cc4)cc3)c2)o1
Key: -1.29

Exercise: Hello, please tell me recorded inhibition for this one: O=C(Nc1n[nH]c2cc(-c3ccccc3)ccc12)C1CC1
Key: -1.71

Exercise: Hello, please tell me recorded inhibition for this one: CN(C)CCCNc1nccc(-c2c(-c3ccc(F)cc3)nn3cc(C(F)(F)F)ccc23)n1
Key: -0.17

Exercise: Hello, please tell me recorded inhibition for this one: Cc1ccc(C(=O)NC(C)C)cc1-c1ccc(C(=O)NCC2CC2)cc1
Key: 1.33

Exercise: Hello, please tell me recorded inhibition for this one: O=C1Nc2ccc(I)cc2C1=Cc1cc(Br)c(O)c(Br)c1
Key: -3.87

Exercise: Hello, please tell me recorded inhibition for this one: NS(=O)(=O)c1ccc(N/N=C2\C(=O)Nc3ccc(-c4cnco4)cc32)cc1
Key: -1.9

Exercise: Hello, please tell me recorded inhibition for this one: CN(C)c1ccc2c(c1)/C(=C/Nc1ccc(S(N)(=O)=O)cc1)C(=O)N2
Key: -1.68

Exercise: Hello, please tell me recorded inhibition for this one: COc1cc(Nc2ncc3c(C)nc(-c4cccc(Oc5ccccc5)c4)n3n2)cc(OC)c1OC
Key: -2.01

Exercise: Hello, please tell me recorded inhibition for this one: CCS(=O)(=O)c1ccc(OC)c(Nc2ncc(-c3ccccc3Cl)o2)c1
Key: -0.98

Exercise: Hello, please tell me recorded inhibition for this one: CNC(=O)c1cncc(/C=C/c2c(C)cccc2C)c1
Key: 0.32

Exercise: Hello, please tell me recorded inhibition for this one: N#Cc1ccc(Oc2nccc(-c3c(-c4ccc(F)cc4)ncn3C3CCNCC3)n2)cc1
Key: -3.52

Exercise: Hello, please tell me recorded inhibition for this one: NCc1ccc(-n2c(-c3nonc3N)nc3cnccc32)cc1
Key: -2.56

Exercise: Hello, please tell me recorded inhibition for this one: C[C@@H](Oc1cc(-n2cnc3ccc(OC4CCN(C)CC4)cc32)sc1C(N)=O)c1ccccc1Cl
Key: -2.69

Exercise: Hello, please tell me recorded inhibition for this one: COc1cc(Nc2ncc(-c3ccccc3)o2)cc(OC)c1OC
Key: 2.19

Exercise: Hello, please tell me recorded inhibition for this one: O=C(Nc1n[nH]c2cc(-c3cc(F)ccc3F)ccc12)C1CC1
Key: -2.08

Exercise: Hello, please tell me recorded inhibition for this one: Fc1ccc(-c2ncn(C3CCNCC3)c2-c2ccnc(Oc3ccc4c(c3)OCO4)n2)cc1
Key: -1.04

Exercise: Hello, please tell me recorded inhibition for this one: COc1cc(Nc2ncc3c(C)nc(-c4cccc(C(F)(F)F)c4)n3n2)cc(OC)c1OC
Key: -1.06

Exercise: Hello, please tell me recorded inhibition for this one: COc1cccc(/C=N/Nc2ncnc3c2cnn3-c2cccc(OC)c2)c1
Key: -3.08

Exercise: Hello, please tell me recorded inhibition for this one: Fc1ccc(-c2ncn(C3CCNCC3)c2-c2ccnc(Oc3ccc(F)c(F)c3)n2)cc1
Key: -3.26

Exercise: Hello, please tell me recorded inhibition for this one: O=C(NCC1CC1)c1ccc(-c2cccc(C(=O)NC3CC3)c2)cc1
Key: -1.5

Exercise: Hello, please tell me recorded inhibition for this one: C#Cc1cccc(Nc2ncnc3ccc(OCCCCNCCS(C)(=O)=O)cc23)c1
Key: -1.38

Exercise: Hello, please tell me recorded inhibition for this one: CN1CCN(CCCNc2nc3ccc(Oc4ccc(NC(=O)Nc5cc(C(F)(F)F)ccc5F)cc4)cc3[nH]2)CC1
Key: -1.48

Exercise: Hello, please tell me recorded inhibition for this one: Fc1ccc(-c2ncn(CCCN3CCOCC3)c2-c2ccncc2)cc1
Key: 0.27

Exercise: Hello, please tell me recorded inhibition for this one: COc1ccc2cc(-c3c(-c4ccncc4)nc(-c4ccc([S+](C)[O-])cc4C)n3C)ccc2c1 (stereo not given)
Key: -0.31

Exercise: Hello, please tell me recorded inhibition for this one: COc1cc(C)c(N(C)C(=O)CN(C)C)cc1Nc1nc(Nc2cccc(F)c2C(N)=O)c2cc[nH]c2n1
Key: -1.96

Exercise: Hello, please tell me recorded inhibition for this one: NC(=O)c1cc(-c2ccncc2)cc(-c2ccccc2)c1N
Key: -1.6

Exercise: Hello, please tell me recorded inhibition for this one: NS(=O)(=O)c1ccc(Nc2cc(-c3ccc(O)c(F)c3)n[nH]2)cc1
Key: 1.32

Exercise: Hello, please tell me recorded inhibition for this one: NS(=O)(=O)c1ccc(N/N=C2\C(=O)Nc3ccc(C(=O)NCCCn4ccnc4)cc32)cc1
Key: -0.49

Exercise: Hello, please tell me recorded inhibition for this one: NC(=O)c1ccc(Oc2nccc(-c3c(-c4ccc(F)cc4)ncn3C3CCNCC3)n2)cc1
Key: -2.65

Exercise: Hello, please tell me recorded inhibition for this one: O=C1NC(=O)C(c2cccc(Cl)c2)=C1Nc1ccc(Cl)c(C(=O)O)c1
Key: -2.19

Exercise: Hello, please tell me recorded inhibition for this one: COc1cc2ncn(-c3cc(OCc4cccs4)c(C(N)=O)s3)c2cc1OC
Key: 1.92
